// provenance: the supplement of paper PMC10307832

Reported relative viability is given for each of the following molecules.
Test system: NCI-H1437
ASSAY PROCEDURE: relative viability (nuclei count vs DMSO), 5 days (fraction); higher = more cells survive
TEST CONDITIONS: first compound 0.08 µM
// return a plain number; no unit text

1. Cc1cnc(-c2cnc(NCCNc3ccc(C#N)cn3)nc2-c2ccc(Cl)cc2Cl)[nH]1 + COc1cc2c(Oc3ccc(NC(=O)C4(C(=O)Nc5ccc(F)cc5)CC4)cc3F)ccnc2cc1OCCCN1CCOCC1 [Foretinib] (partner 0.25 µM)
1.18
2. O=c1[nH]c2ccccc2n1C1CCN(CCCC(c2ccc(F)cc2)c2ccc(F)cc2)CC1 [Pimozide] + CC1(C)CCC(c2ccc(Cl)cc2)=C(CN2CCN(c3ccc(C(=O)NS(=O)(=O)c4ccc(N[C@H](CCN5CCOCC5)CSc5ccccc5)c(S(=O)(=O)C(F)(F)F)c4)cc3)CC2)C1 [Navitoclax] (partner 0.5 µM)
1.07
3. O=c1[nH]c2ccccc2n1C1CCN(CCCC(c2ccc(F)cc2)c2ccc(F)cc2)CC1 [Pimozide] + O=C(CCCCCCC(=O)Nc1ccccc1)NO [Vorinostat] (partner 1 µM)
0.786

Please find the next molecule below.
// query Name the recorded relative viability of the molecule listed here: O=c1[nH]c2ccccc2n1C1CCN(CCCC(c2ccc(F)cc2)c2ccc(F)cc2)CC1 [Pimozide] + C[C@]1(O)C[C@@H](c2nc(-c3ccc4ccc(-c5ccccc5)nc4c3)c3c(N)nccn32)C1 [Linsitinib] (partner 1 µM)
// result 1.09

====

Test system: NCI-H1651
ASSAY PROCEDURE: relative viability (nuclei count vs DMSO), 5 days (fraction); higher = more cells survive
TEST CONDITIONS: first compound 5 µM
ATTRIBUTE MEASURED: relative viability
// return a plain number; no unit text

Examples with their reported relative viability follow.
1. O=C(O)CCCCC(CCSCc1ccccc1)SCc1ccccc1 (stereo not drawn) [CPI-613] + O=C(c1cc(Cc2n[nH]c(=O)c3ccccc23)ccc1F)N1CCN(C(=O)C2CC2)CC1 [Olaparib] (partner 8 µM)
0.189
2. O=C(O)CCCCC(CCSCc1ccccc1)SCc1ccccc1 (stereo not drawn) [CPI-613] + N=C(N)NC(=N)NCCc1ccccc1 [Phenformin] (partner 250 µM)
0.326
3. O=C(O)CCCCC(CCSCc1ccccc1)SCc1ccccc1 (stereo not drawn) [CPI-613] + Cc1cc(Nc2cc(N3CCN(C)CC3)nc(Sc3ccc(NC(=O)C4CC4)cc3)n2)n[nH]1 [Tozasertib] (partner 0.1 µM)
0.705
4. O=C(O)CCCCC(CCSCc1ccccc1)SCc1ccccc1 (stereo not drawn) [CPI-613] + CC1(C)CCC(c2ccc(Cl)cc2)=C(CN2CCN(c3ccc(C(=O)NS(=O)(=O)c4ccc(N[C@H](CCN5CCOCC5)CSc5ccccc5)c(S(=O)(=O)C(F)(F)F)c4)cc3)CC2)C1 [Navitoclax] (partner 0.5 µM)
1.04
5. O=C(O)CCCCC(CCSCc1ccccc1)SCc1ccccc1 (stereo not drawn) [CPI-613] + COc1cccc2cc(-c3nc([C@H]4CC[C@H](C(=O)O)CC4)n4ncnc(N)c34)[nH]c12 [OSI-027] (partner 0.5 µM)
0.66

// query Name the recorded relative viability of the compound listed here: O=C(O)CCCCC(CCSCc1ccccc1)SCc1ccccc1 (stereo not drawn) [CPI-613] + CCNC(=O)c1noc(-c2cc(C(C)C)c(O)cc2O)c1-c1ccc(CN2CCOCC2)cc1 [Luminespib] (partner 0.01 µM)
// result 0.867

// query Name the recorded relative viability of the compound listed here: O=C(O)CCCCC(CCSCc1ccccc1)SCc1ccccc1 (stereo not drawn) [CPI-613] + C[C@@H](Oc1cc(-c2cnn(C3CCNCC3)c2)cnc1N)c1c(Cl)ccc(F)c1Cl [Crizotinib] (partner 1 µM)
// result 0.838

// query Name the recorded relative viability of the compound listed here: O=C(O)CCCCC(CCSCc1ccccc1)SCc1ccccc1 (stereo not drawn) [CPI-613] + Cc1nc(Nc2ncc(C(=O)Nc3c(C)cccc3Cl)s2)cc(N2CCN(CCO)CC2)n1 [Dasatinib] (partner 0.075 µM)
// result 0.348

====

Tested on: HCC-15
ASSAY PROCEDURE: relative viability (nuclei count vs DMSO), 5 days (fraction); higher = more cells survive
TEST CONDITIONS: first compound 0.8 µM
Reported relative viability is given for each of the following molecules.
// return a plain number; no unit text

Examples with their reported relative viability follow.
1. O=c1[nH]c2ccccc2n1C1CCN(CCCC(c2ccc(F)cc2)c2ccc(F)cc2)CC1 [Pimozide] + Cc1nc(NC(=O)N2CCC[C@H]2C(N)=O)sc1-c1ccnc(C(C)(C)C(F)(F)F)c1 [Alpelisib] (partner 2 µM)
0.832
2. O=c1[nH]c2ccccc2n1C1CCN(CCCC(c2ccc(F)cc2)c2ccc(F)cc2)CC1 [Pimozide] + Cc1cc(Nc2cc(N3CCN(C)CC3)nc(Sc3ccc(NC(=O)C4CC4)cc3)n2)n[nH]1 [Tozasertib] (partner 0.1 µM)
0.322

Please find the next molecule below.
// query Name the recorded relative viability of the molecule listed here: Cc1cnc(-c2cnc(NCCNc3ccc(C#N)cn3)nc2-c2ccc(Cl)cc2Cl)[nH]1 + CC(=O)c1c(C)c2cnc(Nc3ccc(N4CCNCC4)cn3)nc2n(C2CCCC2)c1=O [Palbociclib] (partner 0.5 µM)
// result 0.69

====

Tested on: NCI-H650
ASSAY PROCEDURE: relative viability (nuclei count vs DMSO), 5 days (fraction); higher = more cells survive
TEST CONDITIONS: first compound 500 µM
ATTRIBUTE MEASURED: relative viability
// return a plain number; no unit text

Examples with their reported relative viability follow.
1) O=C(O)CCCCC(CCSCc1ccccc1)SCc1ccccc1 (centres undefined) [CPI-613] + O=C(CCCCCCC(=O)Nc1ccccc1)NO [Vorinostat] (partner 1 µM)
0.414
2) O=C(O)CCCCC(CCSCc1ccccc1)SCc1ccccc1 (centres undefined) [CPI-613] + Nc1ncn([C@H]2C[C@H](O)[C@@H](CO)O2)c(=O)n1 [Decitabine] (partner 2 µM)
0.288
3) O=C(O)CCCCC(CCSCc1ccccc1)SCc1ccccc1 (centres undefined) [CPI-613] + N=C(N)NC(=N)NCCc1ccccc1 [Phenformin] (partner 250 µM)
0.333

// query Name the recorded relative viability of the compound listed here: O=C(O)CCCCC(CCSCc1ccccc1)SCc1ccccc1 (centres undefined) [CPI-613] + COc1cccc2cc(-c3nc([C@H]4CC[C@H](C(=O)O)CC4)n4ncnc(N)c34)[nH]c12 [OSI-027] (partner 0.5 µM)
// result 0.373

====

Test system: CAL-12T
ASSAY PROCEDURE: relative viability (nuclei count vs DMSO), 5 days (fraction); higher = more cells survive
TEST CONDITIONS: first compound 0.0002 µM
ATTRIBUTE MEASURED: relative viability
// return a plain number; no unit text

// query Name the recorded relative viability of the molecule listed here: CC(=O)O[C@@]12CO[C@@H]1C[C@H](O)[C@@]1(C)C(=O)[C@H](O)C3=C(C)[C@@H](OC(=O)[C@H](O)[C@@H](NC(=O)OC(C)(C)C)c4ccccc4)C[C@@](O)([C@@H](OC(=O)c4ccccc4)[C@H]21)C3(C)C [Docetaxel] + C[C@@H](Oc1cc(-c2cnn(C3CCNCC3)c2)cnc1N)c1c(Cl)ccc(F)c1Cl [Crizotinib] (partner 1 µM)
// result 0.717

====

Test system: SW 900
ASSAY PROCEDURE: relative viability (nuclei count vs DMSO), 5 days (fraction); higher = more cells survive
TEST CONDITIONS: first compound 50 µM
ATTRIBUTE MEASURED: relative viability
// return a plain number; no unit text

Examples with their reported relative viability follow.
1) O=C(O)CCCCC(CCSCc1ccccc1)SCc1ccccc1 (centres undefined) [CPI-613] + Cc1cc(Nc2cc(N3CCN(C)CC3)nc(Sc3ccc(NC(=O)C4CC4)cc3)n2)n[nH]1 [Tozasertib] (partner 0.1 µM)
0.473
2) O=C(O)CCCCC(CCSCc1ccccc1)SCc1ccccc1 (centres undefined) [CPI-613] + Cc1nc(Nc2ncc(C(=O)Nc3c(C)cccc3Cl)s2)cc(N2CCN(CCO)CC2)n1 [Dasatinib] (partner 0.075 µM)
0.686
3) O=C(O)CCCCC(CCSCc1ccccc1)SCc1ccccc1 (centres undefined) [CPI-613] + O=C(c1cc(Cc2n[nH]c(=O)c3ccccc23)ccc1F)N1CCN(C(=O)C2CC2)CC1 [Olaparib] (partner 8 µM)
0.823

Please find the next molecule below.
// query Name the recorded relative viability of the molecule listed here: O=C(O)CCCCC(CCSCc1ccccc1)SCc1ccccc1 (centres undefined) [CPI-613] + N=C(N)NC(=N)NCCc1ccccc1 [Phenformin] (partner 250 µM)
// result 0.4

====

Test system: SK-LU-1
ASSAY PROCEDURE: relative viability (nuclei count vs DMSO), 5 days (fraction); higher = more cells survive
TEST CONDITIONS: first compound 500 µM
ATTRIBUTE MEASURED: relative viability
// return a plain number; no unit text

1) O=C(O)CCCCC(CCSCc1ccccc1)SCc1ccccc1 (stereo not drawn) [CPI-613] + CS(=O)(=O)N1CCN(Cc2cc3nc(-c4cccc5[nH]ncc45)nc(N4CCOCC4)c3s2)CC1 [Pictilisib] (partner 1 µM)
0.264
2) O=C(O)CCCCC(CCSCc1ccccc1)SCc1ccccc1 (stereo not drawn) [CPI-613] + CCNC(=O)c1noc(-c2cc(C(C)C)c(O)cc2O)c1-c1ccc(CN2CCOCC2)cc1 [Luminespib] (partner 0.01 µM)
0.101

Please find the next molecule below.
// query Name the recorded relative viability of the molecule listed here: O=C(O)CCCCC(CCSCc1ccccc1)SCc1ccccc1 (stereo not drawn) [CPI-613] + CC(=O)Nc1cccc(-n2c(=O)n(C3CC3)c(=O)c3c(Nc4ccc(I)cc4F)n(C)c(=O)c(C)c32)c1 [Trametinib] (partner 0.02 µM)
// result 0.129
